Data origin, for the record: patent US20150140169

- assayed-target: T1, alpha-s1 casein from Bos taurus
- T1 chain: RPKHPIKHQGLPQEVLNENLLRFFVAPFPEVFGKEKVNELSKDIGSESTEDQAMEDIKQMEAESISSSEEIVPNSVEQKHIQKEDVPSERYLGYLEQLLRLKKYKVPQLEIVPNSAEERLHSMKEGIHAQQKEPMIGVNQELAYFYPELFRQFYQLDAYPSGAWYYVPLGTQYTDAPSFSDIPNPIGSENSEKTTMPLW

[
  {
    "protein": "camel chymosin variant #163 (L295T) (protein) GKVAREPLTSYLDSQYFGKIYIGTPPQEFTVVFDTGSSDLWVPSIYCKSNVCKNHHRFDPRKSSTFRNLGKPLSIHYGTGSMEGFLGYDTVTVSNIVDPNQTVGLSTEQPGEVFTYSEFDGILGLAYPSLASEYSVPVFDNMMDRHLVARDLFSVYMDRNGQGSMLTLGAIDPSYYTGSLHWVPVTLQQYWQFTVDSVTINGVAVACVGGCQAILDTGTSVLFGPSSDILKIQMAIGATENRYGEFDVNCGNLRSMPTVVFEINGRDYPLSPSAYTSKDQGFCTSGFQGDNNSETWILGDVFIREYYSVFDRANNRVGLAKAI",
    "(αSN1-1)/(αSN1), 6 hours, 11° C.": 0.5
  },
  {
    "protein": "camel chymosin variant #150 (Q288S) (protein) GKVAREPLTSYLDSQYFGKIYIGTPPQEFTVVFDTGSSDLWVPSIYCKSNVCKNHHRFDPRKSSTFRNLGKPLSIHYGTGSMEGFLGYDTVTVSNIVDPNQTVGLSTEQPGEVFTYSEFDGILGLAYPSLASEYSVPVFDNMMDRHLVARDLFSVYMDRNGQGSMLTLGAIDPSYYTGSLHWVPVTLQQYWQFTVDSVTINGVAVACVGGCQAILDTGTSVLFGPSSDILKIQMAIGATENRYGEFDVNCGNLRSMPTVVFEINGRDYPLSPSAYTSKDQGFCTSGFSGDNNSELWILGDVFIREYYSVFDRANNRVGLAKAI",
    "(αSN1-1)/(αSN1), 6 hours, 11° C.": 0.6
  }
]
